# targetEntity: HLA-A*33:01
# assayInfo: IEDB peptide-MHC binding, purified MHC/competitive/radioactivity; filed as Kd, often an IC50 or EC50 that approximates it; bounds were set here for any values at or beyond the usual limits of such assays
# cond: source organism: Vaccinia virus WR
Mark 1 for Kd under 3 µM, -1 if at or over.

Use these answered entries as a reference point.
INSERT INTO measurements (sequencechain, category) VALUES
  ('NISIISIRPR', 1),
  ('SSAVVDNKLK', -1),
  ('NFFVFIHMVR', 1),
  ('QILMKTANNY', -1),
  ('EFIFSALDEK', 1);

Hi there! Is Kd for `VTFRERYSY` below 3 µM, do you know?
-1

I wonder whether `NTPVSMTYLY` has Kd below 3 µM. Can you tell?
-1

A record lists `RSTAIKVTK` . Is its Kd below 3 µM?
-1

Take the sequence `FIVPEFAKQY` and say whether its Kd is less than 3 µM.
-1

Please let me know if `TSETMYLTMK` shows Kd below 3 µM.
-1

Answer whether the sequence `KSNAKCIEY` has Kd strictly less than 3 µM
-1

Given the entry `KLGDKGSPYY` , would its reported Kd be below 3 µM?
-1

###

# targetEntity: HLA-B*58:01
# assayInfo: IEDB peptide-MHC binding, purified MHC/competitive/fluorescence; filed as Kd, often an IC50 or EC50 that approximates it; bounds were set here for any values at or beyond the usual limits of such assays
# cond: source organism: Lyssavirus rabies
measurementKind: Kd

Annotate the sequence `YLDNVGVHI` with its measured Kd.
≥ 5 µM

###

# targetEntity: HLA-B*27:05
# assayInfo: IEDB peptide-MHC binding, purified MHC/direct/fluorescence; filed as Kd, often an IC50 or EC50 that approximates it; bounds were set here for any values at or beyond the usual limits of such assays
# cond: source organism: Mammarenavirus juninense
pKd: −log10 of the molar value.
measurementKind: pKd

Write down pKd measured for item `DLKLVDVKL`
≤ 4.70

###

# targetEntity: HLA-A*30:02
# assayInfo: IEDB peptide-MHC binding, purified MHC/competitive/fluorescence; filed as Kd, often an IC50 or EC50 that approximates it; bounds were set here for any values at or beyond the usual limits of such assays
# cond: source organism: Lyssavirus rabies
measurementKind: Kd

Please look at this sequence and report its Kd: `YLDNVGVHI`
≥ 5 µM

###

Each record here notes measured Kd.
# targetEntity: HLA-B*57:01
# assayInfo: IEDB peptide-MHC binding, purified MHC/direct/fluorescence; filed as Kd, often an IC50 or EC50 that approximates it; bounds were set here for any values at or beyond the usual limits of such assays
# cond: source organism: Listeria monocytogenes serotype 4b str. H7858

INSERT INTO assay_data (sequencechain, datavalue) VALUES
  ('ERYPGGVSL', '≥ 20 µM');

Quickly give me recorded Kd for `KSAYPFDEL`
≥ 20 µM

Indicate its recorded Kd; the sequence in question is `FPDGKPFTL`
≥ 20 µM

###

# targetEntity: HLA-B*27:05
# assayInfo: IEDB peptide-MHC binding, purified MHC/competitive/fluorescence; filed as Kd, often an IC50 or EC50 that approximates it; bounds were set here for any values at or beyond the usual limits of such assays
# cond: source organism: Lyssavirus rabies
pKd: −log10 of the molar value.
measurementKind: pKd

State pKd (HLA-B*27:05) of `YLDNVGVHI` .
≤ 5.30
